Listing of recorded protein stability index by entry.
B1: C2orf65 (parent)
chain: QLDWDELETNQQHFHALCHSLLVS

Variants of: B1
Experiment: protein stability index of a GFP-peptide fusion (GPS, HEK-293T) (PSI 1-6); higher = more stable;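 further: lentivirally expressed fusions sorted by FACS into six bins by GFP to DsRed ratio, PSI derived from sequencing read proportions per bin multiplied by bin number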
Conditions: c terminus: a fixed tail appended

{"ORDERED_RESIDUES": "QLDWDELETNQQHFHALCHKLLVS [S20K]", "protein stability index": 2.04}
{"ORDERED_RESIDUES": "QLDWDELETNQQHFHALAHSLLVS [C18A]", "protein stability index": 2.11}
{"ORDERED_RESIDUES": "QLTWDELETNQQHFHALCHSLLVS [D3T]", "protein stability index": 2.59}
{"ORDERED_RESIDUES": "QLDMDELETNQQHFHALCHSLLVS [W4M]", "protein stability index": 2.98}
{"ORDERED_RESIDUES": "QLDWDELETNQQHFHALTHSLLVS [C18T]", "protein stability index": 2.25}
{"ORDERED_RESIDUES": "QLDWDELETNQQHKHALCHSLLVS [F14K]", "protein stability index": 3.26}
{"ORDERED_RESIDUES": "QLDWDELETNQIHFHALCHSLLVS [Q12I]", "protein stability index": 2.55}
{"ORDERED_RESIDUES": "QLDWDELETNQQHCHALCHSLLVS [F14C]", "protein stability index": 2.46}
{"ORDERED_RESIDUES": "QIDWDELETNQQHFHALCHSLLVS [L2I]", "protein stability index": 1.78}
{"ORDERED_RESIDUES": "QLDLDELETNQQHFHALCHSLLVS [W4L]", "protein stability index": 2.4}
{"ORDERED_RESIDUES": "QLDWDELECNQQHFHALCHSLLVS [T9C]", "protein stability index": 2.21}
{"ORDERED_RESIDUES": "QLDWDELETNQQHFHAKCHSLLVS [L17K]", "protein stability index": 2.69}
{"ORDERED_RESIDUES": "QLDWDLLETNQQHFHALCHSLLVS [E6L]", "protein stability index": 2.34}
{"ORDERED_RESIDUES": "QLDWDELATNQQHFHALCHSLLVS [E8A]", "protein stability index": 1.57}
{"ORDERED_RESIDUES": "QLDWDYLETNQQHFHALCHSLLVS [E6Y]", "protein stability index": 1.44}
{"ORDERED_RESIDUES": "QLDWDELETNQRHFHALCHSLLVS [Q12R]", "protein stability index": 2.37}
{"ORDERED_RESIDUES": "QLDWDELETNQQHFHALCHMLLVS [S20M]", "protein stability index": 2.27}
{"ORDERED_RESIDUES": "QLDWDELEENQQHFHALCHSLLVS [T9E]", "protein stability index": 2.88}
{"ORDERED_RESIDUES": "QLPWDELETNQQHFHALCHSLLVS [D3P]", "protein stability index": 2.07}
{"ORDERED_RESIDUES": "DLDWDELETNQQHFHALCHSLLVS [Q1D]", "protein stability index": 2.67}
{"ORDERED_RESIDUES": "QLDWDELETNQQGFHALCHSLLVS [H13G]", "protein stability index": 2.39}
{"ORDERED_RESIDUES": "QLDWDELETNQQHFIALCHSLLVS [H15I]", "protein stability index": 2.36}
{"ORDERED_RESIDUES": "QLDWDELETNQQHFHALCHGLLVS [S20G]", "protein stability index": 2.21}
{"ORDERED_RESIDUES": "ALDWDELETNQQHFHALCHSLLVS [Q1A]", "protein stability index": 2.11}
{"ORDERED_RESIDUES": "QLDWDELETNQQHFHGLCHSLLVS [A16G]", "protein stability index": 2.41}
{"ORDERED_RESIDUES": "QLDWDELETNYQHFHALCHSLLVS [Q11Y]", "protein stability index": 1.39}
{"ORDERED_RESIDUES": "QLEWDELETNQQHFHALCHSLLVS [D3E]", "protein stability index": 2.27}
{"ORDERED_RESIDUES": "QLDWDELETNQQHFHALCTSLLVS [H19T]", "protein stability index": 2.02}
{"ORDERED_RESIDUES": "QLDWAELETNQQHFHALCHSLLVS [D5A]", "protein stability index": 2.01}
{"ORDERED_RESIDUES": "KLDWDELETNQQHFHALCHSLLVS [Q1K]", "protein stability index": 1.75}
{"ORDERED_RESIDUES": "LLDWDELETNQQHFHALCHSLLVS [Q1L]", "protein stability index": 1.64}
{"ORDERED_RESIDUES": "QLDWDDLETNQQHFHALCHSLLVS [E6D]", "protein stability index": 1.9}
{"ORDERED_RESIDUES": "QLDWDELETNQQHFHALCQSLLVS [H19Q]", "protein stability index": 2.67}
{"ORDERED_RESIDUES": "QLDWDELETNQQHFHALCKSLLVS [H19K]", "protein stability index": 2.15}
{"ORDERED_RESIDUES": "QLDWDELETNQHHFHALCHSLLVS [Q12H]", "protein stability index": 1.92}
{"ORDERED_RESIDUES": "QLDWDELETNFQHFHALCHSLLVS [Q11F]", "protein stability index": 2.13}
{"ORDERED_RESIDUES": "QLDQDELETNQQHFHALCHSLLVS [W4Q]", "protein stability index": 3.35}
{"ORDERED_RESIDUES": "MLDWDELETNQQHFHALCHSLLVS [Q1M]", "protein stability index": 2.46}
{"ORDERED_RESIDUES": "QLDWDELETNQQWFHALCHSLLVS [H13W]", "protein stability index": 1.55}
{"ORDERED_RESIDUES": "QLDWDELETNQQHPHALCHSLLVS [F14P]", "protein stability index": 2.87}
{"ORDERED_RESIDUES": "QLDWDELENNQQHFHALCHSLLVS [T9N]", "protein stability index": 1.56}
{"ORDERED_RESIDUES": "QLDWDMLETNQQHFHALCHSLLVS [E6M]", "protein stability index": 1.83}
{"ORDERED_RESIDUES": "QLDWDELETNAQHFHALCHSLLVS [Q11A]", "protein stability index": 1.66}
{"ORDERED_RESIDUES": "QLDWDELETNQSHFHALCHSLLVS [Q12S]", "protein stability index": 2.62}
{"ORDERED_RESIDUES": "QLDWDELETNQQHFHSLCHSLLVS [A16S]", "protein stability index": 2.33}
{"ORDERED_RESIDUES": "QLGWDELETNQQHFHALCHSLLVS [D3G]", "protein stability index": 2.85}
{"ORDERED_RESIDUES": "QLDWDELETNQQHFPALCHSLLVS [H15P]", "protein stability index": 2.12}
{"ORDERED_RESIDUES": "QLDWDEVETNQQHFHALCHSLLVS [L7V]", "protein stability index": 2.36}
{"ORDERED_RESIDUES": "QKDWDELETNQQHFHALCHSLLVS [L2K]", "protein stability index": 2.4}
{"ORDERED_RESIDUES": "QLDWDELETNQQHFHAYCHSLLVS [L17Y]", "protein stability index": 2.05}
{"ORDERED_RESIDUES": "QLDWGELETNQQHFHALCHSLLVS [D5G]", "protein stability index": 2.07}
{"ORDERED_RESIDUES": "QLDWDELETNQQHFHALCHFLLVS [S20F]", "protein stability index": 1.43}
{"ORDERED_RESIDUES": "QLDWDHLETNQQHFHALCHSLLVS [E6H]", "protein stability index": 1.57}
{"ORDERED_RESIDUES": "QVDWDELETNQQHFHALCHSLLVS [L2V]", "protein stability index": 2.31}
{"ORDERED_RESIDUES": "QLDWDELETNQQHFHFLCHSLLVS [A16F]", "protein stability index": 2.44}
{"ORDERED_RESIDUES": "TLDWDELETNQQHFHALCHSLLVS [Q1T]", "protein stability index": 2.06}
{"ORDERED_RESIDUES": "QLDWDELETNQFHFHALCHSLLVS [Q12F]", "protein stability index": 1.45}
{"ORDERED_RESIDUES": "FLDWDELETNQQHFHALCHSLLVS [Q1F]", "protein stability index": 1.81}
{"ORDERED_RESIDUES": "QLDWDELETNQQHFHALCSSLLVS [H19S]", "protein stability index": 2.07}
{"ORDERED_RESIDUES": "QLDWDELDTNQQHFHALCHSLLVS [E8D]", "protein stability index": 2.11}
{"ORDERED_RESIDUES": "QLDWDEEETNQQHFHALCHSLLVS [L7E]", "protein stability index": 3.03}
{"ORDERED_RESIDUES": "ELDWDELETNQQHFHALCHSLLVS [Q1E]", "protein stability index": 2.29}
{"ORDERED_RESIDUES": "QLDWDELETNCQHFHALCHSLLVS [Q11C]", "protein stability index": 1.9}
{"ORDERED_RESIDUES": "QLDWDELETTQQHFHALCHSLLVS [N10T]", "protein stability index": 1.55}
{"ORDERED_RESIDUES": "QYDWDELETNQQHFHALCHSLLVS [L2Y]", "protein stability index": 1.64}
{"ORDERED_RESIDUES": "QLDWDELQTNQQHFHALCHSLLVS [E8Q]", "protein stability index": 1.89}
{"ORDERED_RESIDUES": "QLDWDELETNQQHFHALIHSLLVS [C18I]", "protein stability index": 1.66}
{"ORDERED_RESIDUES": "QLDWDELETNQQHFHALCHPLLVS [S20P]", "protein stability index": 2.33}
{"ORDERED_RESIDUES": "QLDWDEPETNQQHFHALCHSLLVS [L7P]", "protein stability index": 2.84}
{"ORDERED_RESIDUES": "QLDWDELETNQQHHHALCHSLLVS [F14H]", "protein stability index": 2.67}
{"ORDERED_RESIDUES": "QLDWDELETNEQHFHALCHSLLVS [Q11E]", "protein stability index": 2.39}
{"ORDERED_RESIDUES": "QLDWDELGTNQQHFHALCHSLLVS [E8G]", "protein stability index": 1.64}
{"ORDERED_RESIDUES": "QLDWDELETNQQHFGALCHSLLVS [H15G]", "protein stability index": 2.48}
{"ORDERED_RESIDUES": "QLDWDELETNSQHFHALCHSLLVS [Q11S]", "protein stability index": 1.79}
{"ORDERED_RESIDUES": "QLDWDELETWQQHFHALCHSLLVS [N10W]", "protein stability index": 2.25}
{"ORDERED_RESIDUES": "QLDWDELETNQQHFHATCHSLLVS [L17T]", "protein stability index": 3.57}
